Study system: T1, human C5a (human, UniProt P01031 678-751)
T1 construct: also called hC5a; free human C5a
T1 sequence: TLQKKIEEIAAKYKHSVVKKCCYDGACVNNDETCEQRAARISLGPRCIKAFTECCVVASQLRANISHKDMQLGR
Procedure details: ELISA
Measured quantity: binding result

| Binder | Measured quantity | Value |
| --- | --- | --- |
| 5an055 (antibody, V domains shown, Murine) VH: EVQLQQSGPELVKPGASVKISCKASGYTFSDYYYMNWVKKSHGKSLEWIGYIFPKTGGTNYNQRFKGKATLTVDKSSSTAYMELRSLTSEDSAVYYCASGPFAYWGQGTLVTVSA VL: EIVLTQSPAIMSASPGEKVTLTCSASSSVSSSYLYWYQQKPGSSPKLWIYSTSNLASGVPARFSGSGSGTSYSLTISSMEAEDAASYFCHQWSSYPPTFGGGTKLEIKR | binding result | binds |
| 5an185ME (antibody, V domains shown, Murine) VH: EVQPQQSGPELVKPGSSVKISCKASGYTFTDYSMDWVKQSHGKSLEWIGAIHLNTGYTNYNQKFKGKATLTVDKSSSTAYMELRSLTSEDSAVYYCARGFYDGYSPMDYWGQGTSVTVSS VL: DIVLTQSPASLAVSLGQRATISCRASESVDSYGNSFMHWYQQKPGQPPKLLIYRASNLESGIPARFSGSGSRTDFTLTINPVEADDVATYYCQQSNEDPLTFGAGTKLELKR | binding result | binds |
| 5anE11 (antibody, V domains shown, Murine) VH: EVQLQQSGPELVKPGASVRISCKASGYTFSDYYYMNWVKKSHGKSLEWIGYIFPKTGGTHYNQRFKGKATLTVDKSSSTAYMELRSLTSEDSAVYYCASGPFAYWGQGTLVTVSA VL: DIVMTQSQKFMSTSVGDRVSVTCKASQNVGTNVAWYQQKPGQSPKALIYSASYRYSGVPDRFTGSGSGTDFTLTISNVQSEDLAEYFCQQYNSYPWTFGGGTKLEIKR | binding result | binds |
